The origin of these recorded values is the supplement of paper PMC9170038.

- Test system: MS2 coat protein
- TEST_DESCRIPTION: apparent KD of MS2 coat protein; designed switch direction (-1 OFF switch, 1 ON switch): -1; higher = weaker reporter binding
- REPORTED_CONDITIONS: input ligand: FMN 200 uM
Is apparent KD of MS2 coat protein at least 80 nM? Then Criterion met. If not, Criterion not met.

IN: Record UGAUUCGGAGGAUAUACAUGAGGAUCACCCAUGUUACCGGAAGGUAGGAGAGGUCGCCGUAGAAGGCUGCACAU [Eternabot (Original) Solution 7] (Eterna round: R97, puzzle: Exclusion 3) ; criterion: apparent KD of MS2 coat protein no lower than 80 nM. Met?
OUT: Criterion not met

IN: Do the same for GGGUGUCGAGUUAGGAUAUCGAUGCCGUAACGGCUCGAGAAGGGACUUGAGGAUCACCCAAGUCUGGUCGAGGC [Rierariis] (Eterna round: R97, puzzle: Brourd's mod of Exclusion 4) please
OUT: Criterion not met

IN: Do the same for GCAAGCUUAAUCUGUAUGAACAUGAGGAUCACCCAUGUAUAAGGGAAUUCUUUUGGGUUUUUUAUUGCUCGUCUUAU [JR_STOV1_Sub024] (Eterna round: R97, puzzle: Sensor, turn-off variant 1) please
OUT: Criterion met

Continuing:
IN: Record AGAUCGUCAGGAUAUACAUGAGGAUCACCCAUGUAUAGUCUAAAUUUGACUAUAAGAUGUAGAAGGGACGAUCG [Exclusion 3 (MOD5 of #1 Marzena11)] (Eterna round: R97, puzzle: Exclusion 3) ; criterion: apparent KD of MS2 coat protein no lower than 80 nM. Met?
OUT: Criterion not met

###

- System: MS2 coat protein
- TEST_DESCRIPTION: apparent KD of MS2 coat protein; designed switch direction (-1 OFF switch, 1 ON switch): -1; higher = weaker reporter binding
- REPORTED_CONDITIONS: Eterna round: R95; input ligand: microRNA oligo, concentration not stated
ENDPOINT_LABEL: apparent KD of MS2 coat protein (nM)
Return type: number; implicit unit nM.

IN: Record lookup: for MS2 coat protein, what apparent KD of MS2 coat protein belongs to AGAUUACGAGGAUAUCGAUUUUAGUACAUGAGGAUCACCCAUGUUAUCCAGGUCUCGUUUCGAGAAGGCGUGAUUC [LRO-Ex5-07] (puzzle: Exclusion 5) ?
OUT: 196

IN: Do the same for GCGAAAGCAAGCAAGUGAAACAUGAGGAUCACCCAUGUCCUCGUUUGCUCGUCUUAUAAGCUAUGCGAAAGCAUAGC [Sensor 3, v1 - 4] (puzzle: Sensor v3, turn-off variant 1) please
OUT: 105

Now look at this entry.
IN: Record lookup: for MS2 coat protein, what apparent KD of MS2 coat protein belongs to ACAGCGUGAGGAUAUACAUGAGGAUCACCCAUGUAUGGCAGGUUAUCCUGUCGUAUGUGUAGAAGGCACGCUGU [Exclusion 3 - Oddities v.3 ( A small slide from ms2 to fmn)] (puzzle: Exclusion 3) ?
OUT: 50.8

###

- Tested on: MS2 coat protein
- TEST_DESCRIPTION: apparent KD of MS2 coat protein; designed switch direction (-1 OFF switch, 1 ON switch): -1; higher = weaker reporter binding
- REPORTED_CONDITIONS: input ligand: none
We begin with a simple list: items and their reported apparent KD of MS2 coat protein.
Return type: number; implicit unit nM.

Sample answers from the record:
IN: Record lookup: for MS2 coat protein, what apparent KD of MS2 coat protein belongs to ACACAUGAGGAUCACCCAUGUCGGGUCAUAUCCUUCGAGGGCUAGGAUAUCGGGACUACGAAGCCCGAGAAGGAGCACUCGUUA [Ceorsobi] (Eterna round: R96, puzzle: Exclusion NG 3) ?
OUT: 105

IN: Do the same for GUAUAACAUGAGGAUCACCCAUGUCAGGAUAUGCGAAUUUCAUCAAAAGAUGAAAUUUGCAGAAGGGACUGUAC [Omei Ex1 A25] (Eterna round: R97, puzzle: Exclusion 1) please
OUT: 67.6

IN: Do the same for UAUUAUCAAGCUAGAUCCCACAUGAGGAUCACCCAUGUGCUCGUCUUAAUUCCAGAAUUACUGGGCUCUCGUCUUAU [JR_STOV1_Sub091] (Eterna round: R97, puzzle: Sensor, turn-off variant 1) please
OUT: 45.1

IN: Do the same for AUCCGUUCUUAGGAUAUUUGAUAAGUCAUGUACGAAGAAGGAAGAACAUGAGGAUCACCCAUGUGGGACUUCGG [Eternabot (L2) Solution 12] (Eterna round: R97, puzzle: Exclusion 6) please
OUT: 25.9

IN: Do the same for AACAGUGUAGGAUAUACAGGGCAAACGGCACCCGUCUCCGGACAUGAGGAUCACCCAUGUAGAAGGACACCUAU [EX2 C.16] (Eterna round: R97, puzzle: Exclusion 2) please
OUT: 47.4

IN: Do the same for GCUCCUCCUGUUAGGAUAUGCUUCGGGCUUCCGCAGCAGAAGGAACAUGAGGAUCACCCAUGUCAAAUAAAAUC [Brourd's mod of Ex.4 - Mod Inxebexe (Scored 85 R3.2)] (Eterna round: R97, puzzle: Brourd's mod of Exclusion 4) please
OUT: 76.2

IN: Do the same for GACCUGGCGAAGGAUAUCUGGAGGGAGUACAUCAGAGAAGGUCGCACAUGAGGAUCACCCAUGUUUGCAAUAGC [Eternabot (Original) Solution 22] (Eterna round: R97, puzzle: Exclusion 6) please
OUT: 21.6

IN: Do the same for AGUAUUCGAGGAUAUACGUGCCAAUGAUCCAUGAGACUCCUACAUGAGGAUCACCCAUGUAGAAGGCGAAAACC [Eternabot (L1) Solution 99] (Eterna round: R97, puzzle: Exclusion 2) please
OUT: 15.9

Now look at this entry.
IN: Record lookup: for MS2 coat protein, what apparent KD of MS2 coat protein belongs to GGGUGACAUGAGGAUCACCCAUGUCAGGAUAUGAUACUAUGUACUUCGGUACAUAGUAUCAGAAGGGACAUCAU [Ex1-3: 14] (Eterna round: R96, puzzle: Exclusion 1) ?
OUT: 424

###

- System: MS2 coat protein
- TEST_DESCRIPTION: apparent KD of MS2 coat protein, switch OFF state (with FMN for OFF switches, without FMN for ON switches); designed switch direction (-1 OFF switch, 1 ON switch): 1; higher = weaker reporter binding
- REPORTED_CONDITIONS: FMN input: 0 or 200 uM; Eterna round: R93 (includes R88 designs)
We begin with a simple list: items and their reported apparent KD of MS2 coat protein.

IN: I would be grateful if you could share the reported apparent KD of MS2 coat protein for GAAAAACAUGAGGAUCACCCAUGUGGAAAUAUGGGAGGAUAUACAAAGACGAAAGUCAAAGUAGAAGGCCUAAAAG [Mat - Same State 1 - Eli mod - D4] .
OUT: 111 nM

###

- Test system: MS2 coat protein
- TEST_DESCRIPTION: apparent KD of MS2 coat protein, switch OFF state (with FMN for OFF switches, without FMN for ON switches); designed switch direction (-1 OFF switch, 1 ON switch): -1; higher = weaker reporter binding
- REPORTED_CONDITIONS: FMN input: 0 or 200 uM; Eterna round: R93 (includes R88 designs)
We begin with a simple list: items and their reported apparent KD of MS2 coat protein.

Sample answers from the record:
IN: I would be grateful if you could share the reported apparent KD of MS2 coat protein for AAAAAGUCAGGAUAUACAUGAGGAUCACCCAUGUAGCAUACGAAAAAGAGUGUGCAGUGUAGAAGGGACAAAAA [Exclusion3-cac3] .
OUT: 21.2 nM

IN: Do the same for AGAAAACAUGAGGAUCACCCAUGUGAGGAUAUCGAAAAGAAAAGAAAAGAAAGAAGAAUGAGAAGGCACAAGAA [Khaba] please
OUT: 28.1 nM

IN: Do the same for AGUUGGCGAGGAUAUACAUGAGGAUCACCCAUGUAAGAGAAAAAAAGGAGAAAAAAAAGUAGAAGGCGCUGACA [Mat - Exclusion 3 - Lego mod - D45] please
OUT: 41.9 nM

IN: Do the same for AAAUAACAUGAGGAUCACCCAUGUUAGGAUAUCUAAAUGGUGUAAACACCAGAAGAUGAGAGAAGGGACGUGGA [Enlalees] please
OUT: 25.1 nM

Continuing:
IN: I would be grateful if you could share the reported apparent KD of MS2 coat protein for AAUAGUGAAGGAUAUACUGGAGGAGUACGAUAAAAGAAAGAACAUGAGGAUCACCCAUGUAGAAGGUCAGAAGU [JR_Exc002_Sub1227] .
OUT: 24.1 nM

IN: Do the same for GGAUGUGUAGGAUAUACAUGAGGAUCACCCAUGUGAGAGAAAAAAGUGAGAAAGAAAAGUAGAAGGACGUGUCG [salish99-ex3-89] please
OUT: 38 nM
